targetOrSystem: wild type androgen receptor (AR) (Homo sapiens, UniProt P10275)
Sequence (P10275 whole entry): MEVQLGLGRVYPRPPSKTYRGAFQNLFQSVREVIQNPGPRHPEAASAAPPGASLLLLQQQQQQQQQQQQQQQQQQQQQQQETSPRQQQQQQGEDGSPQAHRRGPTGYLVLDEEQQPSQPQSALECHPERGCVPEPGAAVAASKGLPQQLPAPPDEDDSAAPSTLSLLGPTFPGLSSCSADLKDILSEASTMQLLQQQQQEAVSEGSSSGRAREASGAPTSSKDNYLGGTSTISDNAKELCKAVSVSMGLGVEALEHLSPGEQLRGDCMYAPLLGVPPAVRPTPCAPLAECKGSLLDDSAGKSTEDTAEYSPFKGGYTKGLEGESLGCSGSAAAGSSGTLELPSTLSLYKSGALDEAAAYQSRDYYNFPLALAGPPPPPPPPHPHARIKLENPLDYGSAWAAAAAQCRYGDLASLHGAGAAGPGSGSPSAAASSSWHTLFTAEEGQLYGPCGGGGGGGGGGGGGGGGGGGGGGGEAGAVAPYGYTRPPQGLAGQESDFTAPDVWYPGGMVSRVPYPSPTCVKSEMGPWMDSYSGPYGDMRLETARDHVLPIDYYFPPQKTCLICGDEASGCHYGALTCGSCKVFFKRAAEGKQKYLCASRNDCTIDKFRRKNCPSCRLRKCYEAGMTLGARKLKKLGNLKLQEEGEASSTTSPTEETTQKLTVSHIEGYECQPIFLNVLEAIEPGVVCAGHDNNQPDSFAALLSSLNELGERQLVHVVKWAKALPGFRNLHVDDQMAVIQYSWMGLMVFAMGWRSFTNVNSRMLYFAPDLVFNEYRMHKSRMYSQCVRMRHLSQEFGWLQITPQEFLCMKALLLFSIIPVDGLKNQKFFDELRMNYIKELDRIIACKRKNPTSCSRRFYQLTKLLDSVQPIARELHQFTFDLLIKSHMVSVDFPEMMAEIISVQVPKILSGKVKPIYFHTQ
assayMethodText: AR-binding inhibition test (wild type)
assayConditions: read-out: Inhibition rate (%) at 100 nM Wild type
Where a name gives a salt, the structure may show the parent alone.

| molecule | inhibition at 0.1 µM / % |
| --- | --- |
| CC1CCCN1c1ccc(C#N)c2occc12 (stereo not drawn) [Compound 95] | 92 |
| C[C@H]1[C@H](O)CCN1c1ccc(C#N)c2ccccc12 [Compound 113] | 97 |
| N#Cc1ccc(N2CCC(CO)C2)c2ccccc12 (stereo not drawn) [Compound 50, hydrochloride] | 91 |
| N#Cc1ccc(N2CCCC(CO)C2)c2ccccc12 (stereo not drawn) [Compound 19] | 75 |
| CC(C)[C@H]1CCCN1c1ccc(C#N)c2ccccc12 [Compound 144] | 103 |
| N#Cc1ccc(N2CCCCC2)c2ccccc12 [Compound 3, 4-(1-piperidinyl)-1-naphthonitrile] | 97 |
| CC1CCCN1c1ccc(C#N)c2sccc12 (stereo not drawn) [Compound 76] | 102 |
| N#Cc1ccc(N2CCC(CCO)C2)c2ccccc12 (stereo not drawn) [Compound 141] | 96 |
| C[C@H]1[C@H](O)CCN1c1ccc(C#N)c2sccc12 [Compound 115] | 93 |
| C[C@H]1[C@@H](CO)CCN1c1ccc(C#N)c2ccccc12 [Compound 107] | 95 |
| CC1(CO)CCCN(c2ccc(C#N)c3ccccc23)C1 (stereo not drawn) [Compound 56] | 80 |
| C=C[C@H]1CCCN1c1ccc(C#N)c2ccccc12 [Compound 81] | 104 |
